- Assay system: UniProtKB Q14833
- Assay: mGluR4 potentiation assay (EC50 for potentiation at EC20 agonist; fluorometric plate reader, Ca2+ or thallium dye)
- Protocol conditions: potentiation of mGluR4; species of receptor not given
- Text: The disclosed compounds and compositions can be evaluated for their ability to act as a potentiator of metabotropic glutamate receptor activity, in particular mGluR4 activity, by any suitable known methodology known in the art. […] The cells were loaded with either a Ca2+-sensitive fluorescent dye or the thallium responsive dye and the plates were washed and placed into a suitable kinetic plate reader. […]
Experimental readout: EC50 (nM)

O=C(NC1CC(F)C1)c1noc2cc(Nc3n[nH]c4cccnc34)ccc12 (stereo not drawn) [Example 54] ... 764
c1cnc2c(Nc3ccc4c(Cc5ccc6[nH]ncc6c5)noc4c3)n[nH]c2c1 [Example 33] ... 44
Cc1noc2ccc(Nc3n[nH]c4cccnc34)cc12 [Example 22] ... 76
CCC(CC)c1noc2cc(Nc3n[nH]c4ncccc34)ccc12 [Example 84] ... 522

1 = c1cnc2[nH]nc(Nc3ccc4c(C5CCCC5)noc4c3)c2c1 [Example 5]
2 = CC(C)(C)Cc1noc2cc(Nc3n[nH]c4cccnc34)cc(F)c12 [Example 145]
Identify the entry with the larger EC50. Options: 1 and 2 To answer, give the label that identifies your chosen option.
1

1 = CC(C)(C)Cc1noc2cc(Nc3n[nH]c4cccnc34)ccc12 [Example 11]
2 = Cc1noc2c(F)cc(Nc3n[nH]c4ncccc34)cc12 [Example 107]
Just tell me: smaller EC50 value, 1 or 2 ? To answer, give the label that identifies your chosen option.
2
(2: 53.1 nM, 1: 521 nM)

----------
- Assay system: mGluR4 (UniProt Q14833)
- Assay: mGluR4 potentiation assay (EC50 for potentiation at EC20 agonist; fluorometric plate reader, Ca2+ or thallium dye)
- Type: cell-based
- Protocol conditions: potentiation of mGluR4; species of receptor not given
Experimental readout: EC50 (µM)

COc1ccc(Cc2noc3cc(Nc4n[nH]c5cccnc45)ccc23)cn1 [Example 32] ... 0.096

I = CCC(CC)c1noc2cc(Nc3n[nH]c4nccnc34)ccc12 [Example 83]
II = CCC(F)(F)c1noc2cc(Nc3n[nH]c4cccnc34)ccc12 [Example 179]
III = CCc1noc2cc(Nc3n[nH]c4nccnc34)ccc12 [Example 19]
Arrange by EC50, high to low. Answer by listing the labels in the order asked for.
II, III, I
(II: 1.99 µM, III: 1.31 µM, I: 0.0971 µM)

----------
- Assay system: UniProt Q14833
- Assay: mGluR4 potentiation assay (EC50 for potentiation at EC20 agonist; fluorometric plate reader, Ca2+ or thallium dye)
- Protocol conditions: potentiation of mGluR4; species of receptor not given
- Text: The disclosed compounds and compositions can be evaluated for their ability to act as a potentiator of metabotropic glutamate receptor activity, in particular mGluR4 activity, by any suitable known methodology known in the art. […] The cells were loaded with either a Ca2+-sensitive fluorescent dye or the thallium responsive dye and the plates were washed and placed into a suitable kinetic plate reader. […]
pEC50: −log10 of the molar value.
Experimental readout: pEC50

c1cnc2c(Nc3ccc4c(OCC5CCCCO5)noc4c3)n[nH]c2c1 (stereo not drawn) ... 5.89
CCCC(C)c1noc2cc(Nc3n[nH]c4nccnc34)ccc12 (stereo not drawn) ... 6.76
Cc1noc2c(F)cc(Nc3n[nH]c4cccnc34)cc12 ... 7.11
O=C(Cc1noc2cc(Nc3n[nH]c4nccnc34)ccc12)NC1CC(F)(F)C1 ... 6.56

1 = CC(C)Cc1noc2cc(Nc3n[nH]c4ncccc34)ccc12
2 = CC(C)(C)CNC(c1noc2cc(Nc3n[nH]c4cccnc34)ccc12)C(F)(F)F (stereo not drawn)
Just tell me: smaller pEC50 value, 1 or 2 ? To answer, give the label that identifies your chosen option.
1
(1: 5.32, 2: 5.82)

----------
- Assay system: UniProt Q14833
- Assay: mGluR4 potentiation assay (EC50 for potentiation at EC20 agonist; fluorometric plate reader, Ca2+ or thallium dye)
- Protocol conditions: potentiation of mGluR4; species of receptor not given
Experimental readout: EC50 (µM)

COc1ncc(Cc2noc3cc(Nc4n[nH]c5cccnc45)ccc23)cn1 ... 0.387

a = Cc1noc2cc(Nc3n[nH]c4cccnc34)ccc12
b = CC(C)c1noc2cc(Nc3n[nH]c4ncccc34)ccc12
Identify the entry with the larger EC50. Options: a and b To answer, give the label that identifies your chosen option.
a
(a: 1.86 µM, b: 0.586 µM)

----------
- Assay system: UniProt Q14833
- Assay: mGluR4 potentiation assay (EC50 for potentiation at EC20 agonist; fluorometric plate reader, Ca2+ or thallium dye)
- Protocol conditions: potentiation of mGluR4; species of receptor not given
- Source text: The disclosed compounds and compositions can be evaluated for their ability to act as a potentiator of metabotropic glutamate receptor activity, in particular mGluR4 activity, by any suitable known methodology known in the art. […] The cells were loaded with either a Ca2+-sensitive fluorescent dye or the thallium responsive dye and the plates were washed and placed into a suitable kinetic plate reader. […]
Experimental readout: EC50 (µM)

The examples below pair each entry with its known result.
Fc1cncc(OCc2noc3cc(Nc4n[nH]c5cccnc45)ccc23)c1 [Example 176] ... 0.767
CC(C)(C)C(F)c1noc2cc(Nc3n[nH]c4cccnc34)ccc12 (stereo not drawn) [Example 146] ... 2.11
CC(c1noc2cc(Nc3n[nH]c4cccnc34)ccc12)C(F)F (stereo not drawn) [Example 178] ... 1.71

A = c1cnc2c(Nc3ccc4c(C5CCC5)noc4c3)n[nH]c2n1 [Example 4]
B = CN(Cc1ccncc1)C(=O)Cc1noc2cc(Nc3n[nH]c4cccnc34)ccc12 [Example 160]
C = Cn1ncc2cc(Cc3noc4cc(Nc5n[nH]c6cccnc56)ccc34)ccc21 [Example 112]
Arrange by EC50, high to low. Answer by listing the labels in the order asked for.
B, A, C

----------
- Assay system: mGluR4 (UniProt Q14833)
- Assay: mGluR4 potentiation assay (EC50 for potentiation at EC20 agonist; fluorometric plate reader, Ca2+ or thallium dye)
- Protocol conditions: potentiation of mGluR4; species of receptor not given
- Description: The disclosed compounds and compositions can be evaluated for their ability to act as a potentiator of metabotropic glutamate receptor activity, in particular mGluR4 activity, by any suitable known methodology known in the art. […] The cells were loaded with either a Ca2+-sensitive fluorescent dye or the thallium responsive dye and the plates were washed and placed into a suitable kinetic plate reader. […]
pEC50: −log10 of the molar value.
Experimental readout: pEC50

ClC1(c2noc3cc(Nc4n[nH]c5nccnc45)ccc23)CCC1 ... 6.73
Cc1noc2c(F)cc(Nc3n[nH]c4nccnc34)cc12 ... 7.64
Cc1ccc(OCc2noc3cc(Nc4n[nH]c5cccnc45)ccc23)cn1 ... 6.23
CCC(CC)c1noc2cc(Nc3n[nH]c4cccnc34)ccc12 ... 6.88
FCCc1noc2cc(Nc3n[nH]c4cccnc34)ccc12 ... 6.05
c1cnc2c(Nc3ccc4c(OC5CCOCC5)noc4c3)n[nH]c2c1 ... 5.92
FC(F)(F)CCc1noc2cc(Nc3n[nH]c4nccnc34)ccc12 ... 6.72
CC(c1ccccn1)N(C)C(=O)Cc1noc2cc(Nc3n[nH]c4cccnc34)ccc12 (centres unmarked) ... 5.64
Cc1noc2ccc(Nc3n[nH]c4ncc(F)cc34)cc12 ... 6.67
CC(C)(C)Cc1noc2cc(Nc3n[nH]c4ncccc34)ccc12 ... 5.51

I = O=C(Cc1noc2cc(Nc3n[nH]c4cccnc34)ccc12)N1CC(F)(F)C1
II = c1cnc2c(Nc3ccc4c(C5CCC5)noc4c3)n[nH]c2c1
III = c1cnc2c(Nc3ccc4c(CN5CCOCC5)noc4c3)n[nH]c2c1
IV = Cn1ncc2cc(Cc3noc4cc(Nc5n[nH]c6nccnc56)ccc34)ccc21
V = CCCC(C)c1noc2cc(Nc3n[nH]c4cccnc34)ccc12 (centres unmarked)
Order the records, beginning with the lowest pEC50 and ending with the highest. Answer by listing the labels in the order asked for.
III, I, II, V, IV

a = CC(C)c1noc2cc(Nc3n[nH]c4cccnc34)ccc12
b = CC1(COc2noc3cc(Nc4n[nH]c5cccnc45)ccc23)COC1
Identify the entry with the larger pEC50. Options: a and b To answer, give the label that identifies your chosen option.
a

a = CC(C)(C)Cc1noc2cc(Nc3n[nH]c4cccnc34)cnc12
b = CN(Cc1cccnc1)C(=O)Cc1noc2cc(Nc3n[nH]c4cccnc34)ccc12
c = Cc1noc2ccc(Nc3n[nH]c4nccnc34)cc12
d = O=C(NC1CC(F)(F)C1)c1noc2cc(Nc3n[nH]c4cccnc34)ccc12
Arrange by pEC50, high to low. Answer by listing the labels in the order asked for.
c, d, a, b

----------
- Assay system: mGluR4 (UniProt Q14833)
- Assay: mGluR4 potentiation assay (EC50 for potentiation at EC20 agonist; fluorometric plate reader, Ca2+ or thallium dye)
- Protocol conditions: potentiation of mGluR4; species of receptor not given
The reader will find reported EC50 values listed item by item below.

CC(C)(C)Cc1noc2cc(Nc3n[nH]c4nccnc34)cc(F)c12 [Example 149] ... > 10 µM
CC(C)(C)Cc1noc2cc(Nc3n[nH]c4cc(F)cnc34)cc(F)c12 [Example 151] ... > 10 µM

Alright, here's another compound for you.
// lookup EC50 | system=mGluR4 (UniProt Q14833) | key= CCc1noc2ccc(Nc3n[nH]c4cccnc34)cc12 [Example 25]
> 10 µM
